Values were extracted from patent US20250018014A1.

Entries and their pIC50
test_target: FL_Reg1 (full-length human Regnase-1) phosphorylation by TBK1 (Homo sapiens)
Construct: made in house; host or cells: Expi293 cells
Sequence (Q5D1E8 whole entry): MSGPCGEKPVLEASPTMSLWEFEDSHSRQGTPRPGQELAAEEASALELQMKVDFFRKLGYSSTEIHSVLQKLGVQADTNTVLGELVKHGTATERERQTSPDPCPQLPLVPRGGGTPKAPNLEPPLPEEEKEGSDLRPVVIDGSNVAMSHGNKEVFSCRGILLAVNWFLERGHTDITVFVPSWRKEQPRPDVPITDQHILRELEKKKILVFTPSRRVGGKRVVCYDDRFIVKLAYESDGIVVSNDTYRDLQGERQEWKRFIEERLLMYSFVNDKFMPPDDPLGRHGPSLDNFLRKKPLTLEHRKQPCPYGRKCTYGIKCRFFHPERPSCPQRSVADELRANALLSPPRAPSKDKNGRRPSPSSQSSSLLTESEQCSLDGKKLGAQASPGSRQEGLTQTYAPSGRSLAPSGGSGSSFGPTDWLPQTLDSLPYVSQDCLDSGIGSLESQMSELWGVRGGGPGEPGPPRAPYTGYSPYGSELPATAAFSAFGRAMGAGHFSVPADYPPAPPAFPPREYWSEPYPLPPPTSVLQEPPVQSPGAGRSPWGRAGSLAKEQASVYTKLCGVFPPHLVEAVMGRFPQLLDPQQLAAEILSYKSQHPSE
protocol: Regnase-1 phosphorylation inhibition by compounds (AlphaScreen), TBK1, full-length Regnase-1
Type: biochemical
test_parameters: Table 13; phosphorylation by TBK1; read-out: Phosphorylation inhibition FL_Reg1, 50% inhibition concentration (TBK1)
Experimental: The full-length sequence of human Regnase-1 (UniProt ID: Q5D1E8) was used to prepare a construct having a FLAG tag on the N-terminal side and a recognition sequence for biotin ligase BirA on the C-terminal side (FL_Reg1) as a target protein. […] Phosphorylated Regnase-1 was detected by the AlphaScreen system. […] After mixing 2 nM of the above-mentioned Regnase-1 and the compound, phosphorylated Regnase-1 produced by the phosphorylation reaction was detected by the AlphaScreen system. […]
Residues, ends and D or L forms follow the SMILES beside them.
Note on pIC50: it is the negative log10 of concentration, concentration in mol/L.

In the examples that follow, each entry is paired with its recorded pIC50.
- molecule: "CC[C@H](C)[C@@H]1NC(=O)[C@H](Cc2c[nH]c3ccccc23)NC(=O)[C@H](C)N(C)C(=O)C[C@@H](C(=O)N2CCCC2)NC(=O)[C@H](CCC(=O)O)NC(=O)[C@H](CC(N)=O)NC(=O)[C@H](Cc2c[nH]c3ccccc23)NC(=O)[C@H](Cc2ccccc2)NC(=O)[C@H](CC(=O)O)NC(=O)[C@H](Cc2c[nH]c3ccccc23)NC1=O [PP24] (HELM PEPTIDE1{[meA].W.I.W.D.F.W.N.E.D.[C1CCN([*:1])C1]}$PEPTIDE1,PEPTIDE1,1:R1-10:R3$$$V2.0)"
  pIC50: 4.45
- molecule: "CC[C@H](C)[C@@H]1NC(=O)[C@H](Cc2c[nH]c3ccccc23)NC(=O)[C@@H](Cc2ccccc2)NC(=O)[C@H](CCCCN)NC(=O)[C@H](C)N(C)C(=O)C[C@@H](C(=O)N2CCCC2)NC(=O)[C@H](CCC(=O)O)NC(=O)[C@H](Cc2ccccc2)NC(=O)[C@H](CO)NC(=O)[C@H](Cc2c[nH]cn2)NC(=O)[C@H](Cc2c[nH]cn2)NC1=O [PP20] (HELM PEPTIDE1{[meA].K.[dF].W.I.H.H.S.F.E.D.[C1CCN([*:1])C1]}$PEPTIDE1,PEPTIDE1,1:R1-11:R3$$$V2.0)"
  pIC50: 4.41

Kindly review the next molecule as well.
Enquiry: Enter recorded pIC50 with FL_Reg1 (full-length human Regnase-1) phosphorylation by TBK1 (Homo sapiens) for CC(C)[C@@H]1NC(=O)[C@H](Cc2c[nH]c3ccccc23)NC(=O)[C@H](CCCCN)NC(=O)[C@H](Cc2c[nH]c3ccccc23)NC(=O)[C@H](CCC(N)=O)NC(=O)[C@H](CCCNC(=N)N)NC(=O)[C@H](Cc2ccccc2)NC(=O)[C@H](CCCNC(=N)N)NC(=O)[C@H](C)N(C)C(=O)C[C@@H](C(=O)N2CCCC2)NC(=O)[C@@H]2CCCN2C(=O)[C@H](Cc2ccc(O)cc2)NC1=O [PP13] (HELM PEPTIDE1{[meA].R.F.R.Q.W.K.W.V.Y.P.D.[C1CCN([*:1])C1]}$PEPTIDE1,PEPTIDE1,1:R1-12:R3$$$V2.0) here.
Return: 5.08
